Values from patent US11053258B2

System: pTau
Assay: pTau assay
Type: cell-based
endpoint-label: IC50 (nM)

compound: O=C1Nc2cnccc2OCCC=CCCNc2nccc1n2 (mixture of isomers) [Example 8]
measured-on: pTau
result-number: 634
//
compound: O=C1Nc2cnc(F)cc2N2CCN(C/C=C/CC(O)CNc3nccc1n3)CC2 (centres unmarked) [Example 26]
measured-on: pTau
result-number: 164
//
compound: O=C1Nc2cnccc2OCCCCCNc2nccc1n2 [Example 6]
measured-on: pTau
result-number: 910
//
compound: O=C1Nc2cnc(F)cc2N2CCN(CC=CCCC(O)CNc3nccc1n3)CC2 (single isomer, unassigned) [Example 28]
measured-on: pTau
result-number: 1870
//
compound: O=C1Nc2cnc(F)cc2N2CCOC(CCCCCNc3nccc1n3)C2 (centres unmarked) [Example 15]
measured-on: pTau
result-number: 1890

----------
Target: UniProt:P49840
Sequence (P49840 whole entry, species assumed): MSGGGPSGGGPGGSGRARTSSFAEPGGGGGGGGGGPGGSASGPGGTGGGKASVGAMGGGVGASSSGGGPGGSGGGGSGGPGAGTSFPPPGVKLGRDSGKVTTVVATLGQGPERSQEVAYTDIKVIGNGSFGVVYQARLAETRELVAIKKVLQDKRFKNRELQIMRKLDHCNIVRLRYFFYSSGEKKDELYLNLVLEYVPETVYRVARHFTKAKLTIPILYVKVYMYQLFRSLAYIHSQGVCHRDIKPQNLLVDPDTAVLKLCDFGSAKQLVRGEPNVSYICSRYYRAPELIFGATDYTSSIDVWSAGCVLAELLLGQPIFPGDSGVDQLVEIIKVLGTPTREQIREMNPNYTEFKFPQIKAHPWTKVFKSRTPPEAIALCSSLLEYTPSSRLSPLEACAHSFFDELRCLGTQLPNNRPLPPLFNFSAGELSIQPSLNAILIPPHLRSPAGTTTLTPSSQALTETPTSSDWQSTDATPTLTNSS
Test: GSK3α kinase assay (Caliper LabChip3000, fluoresceinated peptide substrate)
Format: biochemical
Details: second value of cell; 250 pM enzyme, 20 uM ATP, 20 hours room temperature; read-out: GSK3β/α (nM): GSK3α IC50
endpoint-label: IC50 (nM)

molecule: CC1(O)C/C=C/CN2CCN(CC2)c2cc(F)ncc2NC(=O)c2ccnc(n2)NC1 (centres unmarked)
result-number: 8

molecule: CC1(C)C/C=C/CN2CCN(CC2)c2cc(F)ncc2NC(=O)c2ccnc(n2)NC1
result-number: 2

molecule: C[C@@H]1Nc2nccc(n2)C(=O)Nc2cnc(F)cc2N2CCN(C/C=C/C[C@@H]1O)CC2
result-number: 17

molecule: O=C1Nc2cnccc2OCCCCCNc2nccc1n2
result-number: 21.2

molecule: O=C1Nc2cnccc2OCCC=CCCNc2nccc1n2 (mixture of isomers)
result-number: 8.4

molecule: O=C1Nc2cnc(F)cc2N2CCN(C/C=C\CC3(CC3)CNc3nccc1n3)CC2
result-number: 21.1

molecule: O=C1Nc2cnc(F)cc2N2CCN(C/C=C/CCCNc3nccc1n3)CC2 (single isomer, unassigned)
result-number: 0.6

molecule: O=C1Nc2cnc(F)cc2N2CCN(CC=CCCC(O)CNc3nccc1n3)CC2 (single isomer, unassigned)
result-number: 17.5

----------
Molecular target: GSK3β (Homo sapiens)
Sequence (P49841 whole entry, species assumed): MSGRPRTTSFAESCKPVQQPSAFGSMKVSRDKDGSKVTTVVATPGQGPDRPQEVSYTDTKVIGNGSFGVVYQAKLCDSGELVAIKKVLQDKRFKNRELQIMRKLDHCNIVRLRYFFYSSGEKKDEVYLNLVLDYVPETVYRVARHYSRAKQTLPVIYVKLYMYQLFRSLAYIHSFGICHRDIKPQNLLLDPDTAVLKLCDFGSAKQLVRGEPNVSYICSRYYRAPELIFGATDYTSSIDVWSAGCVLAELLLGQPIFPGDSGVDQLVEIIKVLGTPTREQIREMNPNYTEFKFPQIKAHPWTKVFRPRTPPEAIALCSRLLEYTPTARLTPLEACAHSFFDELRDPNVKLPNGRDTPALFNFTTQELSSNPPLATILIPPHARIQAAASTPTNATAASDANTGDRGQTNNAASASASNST
Experiment: GSK3β kinase assay (Caliper LabChip3000, fluoresceinated peptide substrate)
Type: biochemical
Details: first value of cell; 250 pM enzyme, 20 uM ATP, 20 hours room temperature; read-out: GSK3β/α (nM): GSK3β IC50
Label 1 when IC50 is strictly below 7 nM; at or above that, label -1.

compound: O=C1Nc2cnc(F)cc2N2CCOC(CCCCCNc3nccc1n3)C2 (centres unmarked)
group-label: -1
//
compound: O=C1Nc2cnc(F)cc2N2CCN(CCCCCCNc3nccc1n3)CC2
group-label: 1
//
compound: O=C1Nc2cnc(F)cc2N2CCN(CC=CCCC(O)CNc3nccc1n3)CC2 (single isomer, unassigned)
group-label: -1
//
compound: O=C1Nc2cnc(F)cc2N2CCN(C/C=C/CC(O)CNc3nccc1n3)CC2 (centres unmarked)
group-label: 1
//
compound: CC1(O)C/C=C/CN2CCN(CC2)c2cc(F)ncc2NC(=O)c2ccnc(n2)NC1 (centres unmarked)
group-label: 1
//
compound: C[C@@H]1Nc2nccc(n2)C(=O)Nc2cnc(F)cc2N2CCN(C/C=C/C[C@@H]1O)CC2
group-label: -1
//
compound: O=C1Nc2cnc(F)cc2N2CCOC(/C=C/CCCNc3nccc1n3)C2 (centres unmarked)
group-label: -1
//
compound: O=C1Nc2cnccc2OCCC=CCNc2nccc1n2 (mixture of isomers)
group-label: -1
